test system: KM-20L2; test: NCI tumour cell line growth inhibition, 48 h
Calls of active or inactive are those of the source. Cut-off read from the data, not from the text of the source: active = GI50 up to about 1.1 µM and inactive = higher.
Mark one answer only. Choices: active, inactive

Consider the following illustrative entries.
* N#CC(N)(C(=O)C(=O)NCCCNC(=O)C(=O)C(N)(C#N)c1ccc(Cl)cc1)c1ccc(Cl)cc1 (stereo not drawn) | inactive
* CC(=O)OC1C(O)C(C)OC(OC2C(OC(=O)C3CCC4C(C3)OC3(CC(OC(=O)/C=C/c5ccccc5)C(C)CO3)C43CO3)OC(C)C(O)C2OC(C)=O)C1O (stereo not drawn) | active
* Cn1c2c(c3ccccc31)C1C(=O)N(c3ccccc3)C(=O)C1CC2 (stereo not drawn) | inactive

Prompt: What outcome does the record of this test show for `CC1=C(C(=O)Nc2ccc([N+](=O)[O-])cc2)C(c2ccco2)C(C(=O)Nc2ccc([N+](=O)[O-])cc2)=C(C)N1` ?
Completion: inactive

Prompt: Another compound to look at: CC1=C2C(=O)C3[C@@H](CCC4=CC(=O)CC[C@@]43C)C2CC[C@]12O[C@@H]1C[C@H](C)CN[C@H]1[C@H]2C (stereo partly drawn)
Completion: inactive

Prompt: Record: `CCOCC(=O)N[C@H]1CCc2cc(OC)c(OC)c(OC)c2-c2ccc(OC)c(=O)cc21`
Completion: active

Prompt: Now this one: N#Cc1ccc(C2OCC3CC=CCC3CO2)cc1 (stereo not drawn)
Completion: inactive

Prompt: And the next one, `O=Cc1cc(O)c(O)c(O)c1-c1c(C=O)cc(O)c(O)c1O` ?
Completion: inactive

* * *

tested on: OVCAR-5; test: NCI tumour cell line growth inhibition, 48 h
Activity calls are given as the source filed them. Rule as the data show it: active = GI50 up to about 1.1 µM and inactive = higher.
Your answer must be one of the following: 1 for active, 0 for inactive

These solved cases illustrate the format of a correct answer.
* CC(C)N(C(=O)C1(C)CC1)C(C)C | 0
* CCOC(=O)c1cccn1S(=O)(=O)c1cc(Cl)ccc1NC(=O)CC | 0
* O=S(=O)(O)c1cc2ccc1/C=C\c1ccc(cc1S(=O)(=O)O)/N=N\c1ccc(c(S(=O)(=O)O)c1)/C=C\c1ccc(cc1S(=O)(=O)O)/N=N\2 | 0
* COc1cc(OC)c(OC)cc1/C=C/c1cnnc2ccccc12 | 0

Prompt: Status in this test for CC(C)C(NCc1c2ccccc2[n+](C)c2ccccc12)C(=O)O (centres undefined) ?
Completion: 0

Prompt: Also Nc1ccn(C2OC(COP(=O)(O)OCC3OC(n4cc(F)c(=O)[nH]c4=O)CC3O)C(O)C2O)c(=O)n1 (centres undefined) , if possible.
Completion: 0

Prompt: Try this compound next: `CSC1=N/C(=C\c2cccs2)C(=O)N1CN1CCCCC1`
Completion: 0

* * *

system: EKVX; assay: NCI tumour cell line growth inhibition, 48 h
Active and inactive are the calls of the source. Cut-off read from the data, not from the text of the source: active = GI50 up to about 1.1 µM and inactive = higher.
Recorded GI50 values for a group of molecules are listed next.

Prompt: Entry under review: CNC(=O)OC1/C(C)=C\C(C)C(O)C(OC)CC(C)CC2=C(OC)C(=O)C=C(C2=O)N(C)C(=O)/C(C)=C/C=C\C1OC (configuration not stated) . Reported GI50?
Completion: 11.9 µM (inactive)

* * *

test system: OVCAR-3; assay: NCI tumour cell line growth inhibition, 48 h
The source made the active and inactive calls. No stated cut-off is given here; in the data, active = GI50 up to about 1.1 µM and inactive = higher.
Allowed answers: active, inactive

Examples from the recorded data:
- Brc1ccc(-c2[nH]c3ccccc3c2/C=N\Nc2ccc(-c3nc4ccccc4[nH]3)cc2)cc1: active
- CC1=CC(=O)CCC2(C)C1CC[C@@H]2OC=O (stereo not given in full): inactive
- COC(=O)C1=C(C)NC(C)=C(C(=O)OC)C1c1ccc(N=O)cc1: inactive
- CSc1n/c(=N\c2ccccc2)sn1-c1ccccc1: inactive

Prompt: Recorded call for `Cc1cc(C)c(S(=O)(=O)N(CCCN)OCCON(CCCN)S(=O)(=O)c2c(C)cc(C)cc2C)c(C)c1` ?
Completion: inactive

* * *

tested on: SW-620; assay: NCI tumour cell line growth inhibition, 48 h
Active and inactive are the calls of the source. Cut-off read from the data, not from the text of the source: active = GI50 up to about 1.1 µM and inactive = higher.
assay.readout: GI50

• COc1ccc(-c2cn3c(nc4ccccc43)c(C)n2)cc1 = > 100 µM (inactive)
• C1CSCCSCCSCCSCCS1 = > 100 µM (inactive)
• Cn1c2ccc3cc2c(=S)c2cc(ccc21)OCCOCCOCCOCCOCCOCCO3 = > 10 µM (inactive)
• COC1C(O)CC(OC2CC(Oc3cc4cc5c(c(O)c4c(O)c3C)C(=O)[C@@H](OC3CC(OC4CC(OC6CC(C)(O)C(OC(C)=O)C(C)O6)C(O)C(C)O4)C(O)C(C)O3)[C@H]([C@H](OC)C(=O)[C@@H](O)[C@@H](C)O)C5)OC(C)C2OC(C)=O)OC1C (stereo not given in full) = < 0.01 µM (active)

// next entry
Prompt: Give SW-620 GI50 for `Nc1nc(Sc2ccc([N+](=O)[O-])c3nonc23)c2nc[nH]c2n1`
Completion: 1.01 µM (active)

* * *

system: TK-10; experiment: NCI tumour cell line growth inhibition, 48 h
Calls of active or inactive are those of the source. Rule as the data show it: active = GI50 up to about 1.1 µM and inactive = higher.
assay.readout: GI50

• CC1(C)OC(=C(C#N)C#N)C(C#N)=C1/C=C/c1ccncc1 = 2.08 µM (inactive)
• COc1cc2c(cc1OC)[C@@H](Nc1ccc(F)cc1)C1COC(=O)[C@@H]1C2c1cc(OC)c(O)c(OC)c1 (stereo not given in full) = 7.18 µM (inactive)
• CC1C(c2ccccc2O)c2cc3c(cc2OC1N1CCCC1)OCO3 (stereo not given) = 39.2 µM (inactive)
• COC(=O)C(C(=O)C(=O)Nc1ccccc1C#N)c1nc2ccc([N+](=O)[O-])cc2nc1O (stereo not given) = > 100 µM (inactive)

Now for the molecule whose GI50 we want.
Prompt: # lookup: GI50 of COc1ccc(N[S+]([O-])c2ccccc2OC)cc1 (stereo not given)
Completion: > 100 µM (inactive)

* * *

tested on: ACHN; experiment: NCI tumour cell line growth inhibition, 48 h
Activity calls are given as the source filed them. No stated cut-off is given here; in the data, active = GI50 up to about 1.1 µM and inactive = higher.
# Lookup of reported GI50 keyed by entry

Past entries and their recorded results:
• c1ccc2c(NCCCCCCCCNc3c4ccccc4nc4ccccc34)c3ccccc3nc2c1 = 0.0703 µM (active)
• COc1ccc([C@H]2[C@@H]3CCc4ccccc4C3=NN2C(N)=S)cc1OC = 32.7 µM (inactive)
• CC(C)CC(=O)OC[n+]1ccc(-c2c(COC(=O)NC(C)C)c(COC(=O)NC(C)C)c3n2CCC3)cc1 = 38.3 µM (inactive)

Prompt: Fill in the blank: the reported GI50 of `Cc1ccc([N+](=O)[O-])cc1NC(=O)c1cccc([N+](=O)[O-])c1O` is ____.
Completion: 14.4 µM (inactive)

* * *

List of GI50 values.
test system: MDA-MB-231; assay: NCI tumour cell line growth inhibition, 48 h
The source made the active and inactive calls. Rule as the data show it: active = GI50 up to about 1.1 µM and inactive = higher.

• CC1(C)OC(=C(C#N)C#N)C(C#N)=C1/C=C/c1ccncc1 = 2.16 µM (inactive)
• CSC1=N/C(=C\c2cccs2)C(=O)N1CN1CCCCC1 = > 100 µM (inactive)
• Nc1ccc(S(=O)(=O)NCCS(=O)(=O)O)cc1 = > 100 µM (inactive)
• CC(C)(C)[Si](C)(C)OCCc1ccccc1C1CC2(S(=O)(=O)c3ccccc3)ON1CC2S(=O)(=O)c1ccccc1 (stereo unspecified) = > 100 µM (inactive)
• NC(=O)N/N=C(/CC1C(=O)Oc2ccccc21)c1ccccc1O (stereo unspecified) = > 100 µM (inactive)

Here is another compound to look at.
Prompt: What measured GI50 is associated with `NC(=O)/N=C1\NCCC(=O)N1CCc1c[nH]c2ccccc12` on MDA-MB-231?
Completion: 8.09 µM (inactive)

* * *

test system: SN12C; test: NCI tumour cell line growth inhibition, 48 h
Calls of active or inactive are those of the source. Rule as the data show it: active = GI50 up to about 1.1 µM and inactive = higher.
Result category, one only: 1 (active), -1 (inactive)

As a guide, the following entries are already answered.
• CCOc1cc(CC[N+](C)(C)C)c2c(ccc3ccc(OC)c(OC)c32)c1OC = -1
• CS/C(c1ccccc1)=[N+](\[O-])Cc1ccccc1 = -1
• O/N=C\c1c(O)ccc2ccccc12 = -1
• CC(C)n1c2c(c3ccccc3c1=O)C(=O)c1ccccc1-2 = -1
• C1CSCCSCCSCCSCCS1 = -1
• CC(C)NC(=O)OCc1c(COC(=O)NC(C)C)c(-c2cc[n+](COC(=O)C3CCCCC3)cc2)n2c1CCC2 = -1
• CCOC(=O)CCc1c(C)c2c(OC(C)=O)cc(OC(C)=O)cc2oc1=O = -1
• O=C(O)C1CCc2ccc3ccccc3c2C1c1cccc2ccccc12 (centres undefined) = -1

Prompt: What was the test verdict on `CC(=O)NNc1nc(-c2ccc([N+](=O)[O-])cc2)c(C#N)c(=O)n1C` ?
Completion: -1

Prompt: Continue with `CCN(CC)C(=S)SNc1ccc(S(N)(=O)=O)cc1`
Completion: -1

Prompt: Same question, COc1ccc(C2NCCc3c2[nH]c2ccccc32)cc1 (centres undefined) this time
Completion: -1

Prompt: Thanks! And `O=C(C[N+]1(c2ccccc2)CCOCC1)c1ccccc1` ?
Completion: -1
